# Protocol Summary: qHTS assay to identify small molecule antagonists of the peroxisome proliferator-activated receptor gamma (PPARg) signaling pathway - cell viability counter screen (AID 743194); note: % is set by controls: 0 for no effect and ±100 for the full control effect; nearly all actives have a fitted effect of over 55% in size
# Condition: PPARg-bla HEK293H viability, CellTiter-Glo luminescence, 17 h, co-treated with 50 nM rosiglitazone; series mostly up to 62.6 µM
Records with an inconclusive call do not appear. Active and inactive are the calls of the source. Calls come from the whole dose curve; as a rule, active = well fitted cell-killing curve with a large enough effect in the repeat runs; inconclusive = weak or mixed curves, or effect the other way; inactive = no such curve, though single readings can be large or run the other way.

{"columns": ["Given Smiles", "activity change, negative = cytotoxicity"],
 "data": [
  ["CCO/C([O-])=N/c1c[n+](N2CCOCC2)no1", "inactive"],
  ["CCOC(=O)c1cccc(N)c1", "inactive"],
  ["N[C@@H](C(=O)N[C@@H]1C(=O)N2C(C(=O)O)=C(Cl)CS[C@H]12)c1ccccc1", "0.956% [at 13.2 µM] (inactive)"],
  ["O=c1n(CCO)c(=O)n(CCO)c(=O)n1CCO", "inactive"]
]}

====

# Protocol Summary: A CellTox Green Cytotoxicity Assay to monitor cytotoxicity in HEK293 cells - 32 hour (AID 1224881); note: nearly all actives have a fitted effect of over 40% in size
# Condition: CellTox Green fluorescence; series mostly up to 35.3 µM
Records with an inconclusive call do not appear. Activity calls are given as the source filed them. The call rests on the fitted dose curve; in most records, active means well fitted activation curve with a large enough effect in the repeat runs; inconclusive means weak or mixed curves; inactive means flat fitted curve, though single readings scatter.
Labels: t (active), f (inactive)

{"columns": ["Compound", "Class Label"],
 "data": [
  ["OC[C@]1(O)OC[C@@H](O)[C@H](O)[C@@H]1O", "f"],
  ["Nc1c[n+](N2CCOCC2)no1", "f"],
  ["CC(C)CNCC(C)C", "f"],
  ["COC(=O)[C@@H](N)Cc1ccc(O)c(O)c1", "f"],
  ["CCCCCOC(=O)CCCCC", "f"],
  ["CCS(=O)(=O)c1ccc(OC)c(C(=O)OC)c1", "f"],
  ["CN1CCCC1", "f"],
  ["FC(F)OC(Cl)C(F)(F)F (stereo not given)", "f"],
  ["CC(=O)OCC(CCn1cnc2cnc(N)nc21)COC(C)=O", "f"],
  ["CS(=O)(=O)O", "f"],
  ["CN(C)CCCSc1ccccc1NC(=O)/C=C/c1ccccc1", "t"],
  ["CCO/C([O-])=N/c1c[n+](N2CCOCC2)no1", "f"],
  ["Cn1cc(S(C)=O)c(=O)c2ccc(F)cc21 (stereo not given)", "f"],
  ["NC(=O)c1ccc(N)cc1", "f"],
  ["O=[N+]([O-])c1ccc(F)cc1F", "f"]
]}

====

# Protocol Summary: qHTS assay to identify small molecule antagonists of the estrogen receptor alpha (ER-alpha) signaling pathway - cell viability counter screen (AID 743074);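 note: HEK293 cells carrying ER-alpha-UAS-bla reporter stimulated with 17beta-estradiol; % is set by controls: 0 for no effect and ±100 for the full control effect; nearly all actives have a fitted effect of over 45% in size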
# Condition: ERalpha-bla HEK293 viability, CellTiter-Glo luminescence, 18 h; series mostly up to 69.4 µM
Results filed as inconclusive are left out. The source made the active and inactive calls. The call rests on the fitted dose curve.

{"columns": ["Molecule", "activity, negative = cytotoxicity"],
 "data": [
  ["O=C(O)CNC(=O)c1ccc([N+](=O)[O-])cc1", "inactive"],
  ["COC(=O)NN", "inactive"],
  ["c1cnc(N2CCN(Cc3ccc4c(c3)OCO4)CC2)nc1", "inactive"],
  ["Oc1ccc(C2CNCCc3c2cc(O)c(O)c3Cl)cc1 (centres undefined)", "inactive"],
  ["CCc1ccc(O)c(OC)c1", "inactive"],
  ["CN(C)CCCN1c2ccccc2CCc2ccc(Cl)cc21", "inactive"],
  ["O=c1[nH]c(=O)n([C@H]2C[C@H](O)[C@@H](CO)O2)cc1I", "inactive"],
  ["CCCN1CCCC[C@H]1C(=O)Nc1c(C)cccc1C", "inactive"],
  ["CC/C=C\\CCOC(C)=O", "inactive"],
  ["NC(=O)COCCN1CCN(C(c2ccccc2)c2ccc(Cl)cc2)CC1 (centres undefined)", "inactive"],
  ["CCOC(=O)C(=O)OCC", "inactive"],
  ["O=C1OC(=O)C2CCCCC12 (centres undefined)", "inactive"],
  ["CN(C(=O)c1c(O)c2ccccc2n(C)c1=O)c1ccccc1", "inactive"],
  ["OC[C@]1(O)OC[C@@H](O)[C@H](O)[C@@H]1O", "inactive"],
  ["NCCCNCCSP(=O)(O)O", "inactive"],
  ["COc1c(N2C[C@@H]3CCCN[C@@H]3C2)c(F)cc2c(=O)c(C(=O)O)cn(C3CC3)c12", "inactive"],
  ["C/C=C(\\C)C#N", "inactive"],
  ["CC(=O)CC(C)C", "inactive"],
  ["CC(C)(O)C(=O)c1ccccc1", "inactive"],
  ["COc1ccccc1OCC(O)CN1CCN(CC(=O)Nc2c(C)cccc2C)CC1 (centres undefined)", "inactive"],
  ["NC(=O)c1cn(Cc2c(F)cccc2F)nn1", "inactive"],
  ["CC(C[N+](C)(C)C)OC(N)=O (centres undefined)", "inactive"],
  ["CCC(C)C1CCCCC1=O (centres undefined)", "inactive"],
  ["CCCCCCCCCCCCCC=O", "-17.6% [at 6.72 µM] (inactive)"],
  ["C[N+](C)(C)CCCCCC[N+](C)(C)C", "inactive"],
  ["O=c1cc(CO)occ1O", "inactive"],
  ["CN1CC(=O)NC1=N", "inactive"],
  ["O=C(CCCN1CCN(c2ccccn2)CC1)c1ccc(F)cc1", "inactive"],
  ["C=C(C)CS(=O)(=O)O", "inactive"]
]}

====

# Protocol Summary: qHTS assay to test for compound auto fluorescence at 460 nm (blue) in HepG2 cells (AID 720687); note: % is set by controls: 0 for no effect and ±100 for the full control effect
# Condition: autofluorescence 405/460 nm, 1 h; series mostly up to 46 µM
Activity calls are given as the source filed them. Calls come from the whole dose curve; as a rule, active = well fitted curve in the direction sought with a large enough effect in the repeat runs; inconclusive = weak or mixed curves; inactive = flat fitted curve, though single readings scatter.

{"columns": ["Given Smiles", "fluorescence, % of fluorescent control"],
 "data": [
  ["C[C@H]1C[C@@H](O)CC(C)(C)C1", "inactive"],
  ["NC(=O)c1ccc([N+](=O)[O-])cc1", "inactive"],
  ["CC(C)(CC(=O)O)C(=O)O", "inactive"],
  ["CCCCCCOC(=O)CCCCC(=O)OCCCCCC", "inactive"],
  ["CCn1nc(C(=O)O)c(=O)c2cc3c(cc21)OCO3", "inactive"],
  ["Nc1c[n+](N2CCOCC2)no1", "inactive"],
  ["N=c1nc(N2CCCCC2)cc(N)n1O", "inactive"],
  ["O=C1CCCCCCCCCCCN1", "inactive"]
]}

====

# Protocol Summary: qHTS assay to identify small molecule antagonists of the androgen receptor (AR) signaling pathway using the MDA cell line in the presence of 0.5 nM R1881 - cell viability counter screen (AID 1259242); note: % is set by controls: 0 for no effect and ±100 for the full control effect; nearly all actives have a fitted effect of over 45% in size
# Condition: MDA-kb2 viability, CellTiter-Fluor protease fluorescence, 16 h; series mostly up to 92.4 µM
Inconclusive results are not listed. The source made the active and inactive calls. Calls follow the shape of the dose curve; as a rule, active = well fitted cell-killing curve with a large enough effect in the repeat runs; inconclusive = weak or mixed curves, or effect the other way; inactive = flat fitted curve, though single readings scatter.
Property Measured: viability change, negative = cytotoxic

{"columns": ["Compound", "Property Measured", "Reading"],
 "data": [
  ["O=C[C@H](O)[C@@H](O)[C@H](O)[C@H](O)CO", "viability change, negative = cytotoxic", "inactive"],
  ["O=C1CCCN1C1CCCCC1", "viability change, negative = cytotoxic", "inactive"],
  ["CC(=O)CC(C)C", "viability change, negative = cytotoxic", "inactive"],
  ["CCC(=O)OC(C)c1ccccc1 (stereo not drawn)", "viability change, negative = cytotoxic", "inactive"],
  ["CC/C=C\\CCOC(C)=O", "viability change, negative = cytotoxic", "inactive"],
  ["O=C(O)COc1nn(Cc2ccccc2)c2ccccc12", "viability change, negative = cytotoxic", "inactive"],
  ["CCC(C)S (stereo not drawn)", "viability change, negative = cytotoxic", "1.28% [at 3.26 µM] (inactive)"],
  ["Cc1c(O)cccc1O", "viability change, negative = cytotoxic", "inactive"]
]}

====

# Protocol Summary: Caspase-3/7 induction in CHO-K1 cells by small molecules, qHTS cell viability counter screen (AID 1346979); note: % is set by controls: 0 for no effect and ±100 for the full control effect; nearly all actives have a fitted effect of over 35% in size
# Condition: CellTiter-Fluor fluorescence, 17 h; series mostly up to 42.5 µM
# Excerpt: National Center for Advancing Translational Sciences [NCATS] NIH Chemical Genomics Center [NCGC] U.S. Environmental Protection Agency [EPA] National Institutes of Environmental Health Sciences [NIEHS] National Toxicology Program [NTP] U.S. Food and Drug Administration [FDA] Apoptosis is a process of programmed cell death and plays a central role in the development of multicellular organisms. […]
Inconclusive results are not listed. Activity calls are given as the source filed them. The call rests on the fitted dose curve; in most records, active means well fitted cell-killing curve with a large enough effect in the repeat runs; inconclusive means weak or mixed curves, or effect the other way; inactive means no such curve, though single readings can be large or run the other way.

{"columns": ["Compound", "activity change, negative = cytotoxicity"],
 "data": [
  ["C=COCC1CCC(CO)CC1 (stereo not given)", "inactive"],
  ["CCOC(=O)CCC(C)=O", "inactive"],
  ["CCCCCCCCS(=O)(=O)Cl", "inactive"],
  ["CCOC(=O)[C@H](CCc1ccccc1)N[C@@H](C)C(=O)N1[C@H](C(=O)O)C[C@@H]2CCC[C@@H]21", "inactive"],
  ["CCCCCCCCCCCCCC=O", "0.0836% [at 8.39 µM] (inactive)"],
  ["CCn1nc(C(=O)O)c(=O)c2cc3c(cc21)OCO3", "inactive"],
  ["C[N+](C)(C)CCCCCC[N+](C)(C)C", "inactive"],
  ["C[N+](C)(C)CC(O)CC(=O)[O-] (stereo not given)", "inactive"],
  ["Cc1ccc(=O)n(-c2ccccc2)c1", "inactive"],
  ["Nc1ccccc1S(=O)(=O)O", "inactive"],
  ["Cc1ccc(C#N)cc1", "inactive"],
  ["Cc1sccc1Br", "inactive"],
  ["CC/C=C\\CCOC(C)=O", "inactive"],
  ["COC(=O)c1ccc(C)cc1C1=NC(C)(C(C)C)C(=O)N1 (stereo not given)", "inactive"],
  ["CCOC(=O)c1ccc(C)cc1", "inactive"]
]}
